system: 926638-142-R-J1-PDC complex spheroid viability; test: Anticancer human tumor 926638-142-R-J1-PDC patient-derived endometrial carcinoma cell line growth inhibition [POLQ]; settings: curve of first compound; second compound 0.1 µM
pIC50: −log10 of the molar value.
Would you kindly list pIC50 for each of these compounds?

{"compound": "Cn1ncnc1[C@H]1c2n[nH]c(=O)c3cc(F)cc(c23)N[C@@H]1c1ccc(F)cc1 + Nc1ccc(C#CCN(C(=O)Cc2ncc(C(F)(F)F)cc2C(F)(F)F)c2ccc(F)cc2)nn1", "experimental target": "926638-142-R-J1-PDC complex spheroid viability", "pIC50": "< 7.00"}
{"compound": "O=c1[nH]cc(F)c(=O)[nH]1 + Nc1ccc(C#CCN(C(=O)Cc2ncc(C(F)(F)F)cc2C(F)(F)F)c2ccc(F)cc2)nn1", "experimental target": "926638-142-R-J1-PDC complex spheroid viability", "pIC50": "< 5.00"}

Next item in the queue.
Write down the reported pIC50 of CCCS(=O)(=O)Nc1ccc(F)c(C(=O)c2c[nH]c3ncc(-c4ccc(Cl)cc4)cc23)c1F + COC1C(OC(N)=O)C(O)C(Oc2ccc3c(O)c(NC(=O)c4ccc(O)c(CC=C(C)C)c4)c(=O)oc3c2C)OC1(C)C , test system: 926638-142-R-J1-PDC complex spheroid viability.
5.01

----------
system: 926638-142-R-J1-PDC complex spheroid viability; assay: Anticancer human tumor 926638-142-R-J1-PDC cell line growth inhibition [POLQ]; details: second compound 0.0316 µM; first compound 1 µM; stronger effect = lower value;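 note: spheroids exposed to drugs for one week before readout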;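 for viability, T/C: percent viability relative to DMSO vehicle control wells set as 100%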
// NB: equality with 30% counts as not satisfied; only viability, T/C strictly below is satisfied

Solved cases (2 shown):
{"molecule": "C=CCn1c(=O)c2cnc(Nc3ccc(N4CCN(C)CC4)cc3)nc2n1-c1cccc(C(C)(C)O)n1 + Nc1ccc(C#CCN(C(=O)Cc2ncc(C(F)(F)F)cc2C(F)(F)F)c2ccc(F)cc2)nn1", "assigned label": "not satisfied"}
{"molecule": "CCCS(=O)(=O)Nc1ccc(F)c(C(=O)c2c[nH]c3ncc(-c4ccc(Cl)cc4)cc23)c1F + Nc1ccc(C#CCN(C(=O)Cc2ncc(C(F)(F)F)cc2C(F)(F)F)c2ccc(F)cc2)nn1", "assigned label": "not satisfied"}

Now take the following molecule into account.
Quick check: does CCc1c2c(nc3ccc(O)cc13)-c1cc3c(c(=O)n1C2)COC(=O)[C@]3(O)CC + Nc1ccc(C#CCN(C(=O)Cc2ncc(C(F)(F)F)cc2C(F)(F)F)c2ccc(F)cc2)nn1 have viability, T/C under 30%?
satisfied

----------
tested on: 926638-142-R-J1-PDC complex spheroid viability; assay: Anticancer human tumor 926638-142-R-J1-PDC cell line growth inhibition [POLQ]; settings: second compound 1 µM; first compound 0.316 µM; stronger effect = lower value;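 note: spheroids exposed to drugs for one week before readout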;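 for viability, T/C: percent viability relative to DMSO vehicle control wells set as 100%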
Would you kindly list viability, T/C for each of these compounds?
Answers are plain numbers, in %.

{"compound": "COc1cccc(OCCCN)c1-c1cc(Nc2cnc(C#N)cn2)n[nH]1 + Cc1cccc(N(C)C(=O)C2C(O)CCN2c2nc(C)cc(C(F)(F)F)c2C#N)c1", "viability, T/C, %": 49.2}
{"compound": "CC1COCCN1c1cc(C2(S(C)(=N)=O)CC2)nc(-c2ccnc3[nH]ccc23)n1 (stereo not drawn) + Nc1ccc(C#CCN(C(=O)Cc2ncc(C(F)(F)F)cc2C(F)(F)F)c2ccc(F)cc2)nn1", "viability, T/C, %": 90.4}

Next item in the queue.
Item under review: O=C(c1cc(Cc2n[nH]c(=O)c3ccccc23)ccc1F)N1CCN(C(=O)C2CC2)CC1 + COC1C(OC(N)=O)C(O)C(Oc2ccc3c(O)c(NC(=O)c4ccc(O)c(CC=C(C)C)c4)c(=O)oc3c2C)OC1(C)C . Reported viability, T/C?
110
